Source listed as the nanobody polyreactivity screen of Harvey et al. (2022).

test: yeast display, Sf9 membrane polyspecificity reagent, FACS + sequencing; frameworks hold sequencing errors
METRIC: polyreactivity (PSR sort gate)

>>> measured("QVQLVESGGGLVQAGGSLRLSCAASGSTLVRKAMGWYRQAPGKERELVAAISRSGGRTYYADSVKGRFTISRDNAKNTVYLQMNSLKPEDTAVYYCARLDGFSASDHDYWGQGTQVTVSS")
"high polyreactivity"
>>> measured("QVQLVESGGGLVQAGGSLRLSCAASGRILSGTPMGLYRQAPRKERELVAAITNAGITKYADSVKGRFTISRDNAKNTVYLQMNSLKPEDTAVYYCATDRYAYKLYDYWGQGTKVTVSS")
"low polyreactivity"
>>> measured("QVQLVESGGGLVQAGGSLRLTCAASGRTFTRYAMGWYRQAPGKERELVAAISGGGGSTYYADSVKGRFTISRDNAKNTVYLQMNSLKPEDTAVYYCNAAARGSSFDYWGQGTQVTVSS")
"low polyreactivity"
>>> measured("QVQLVESGGGLVQAGGSLRLSCAASGRIFRVYAMGWYRQAPGKERELVAVISARGGNTYYADSVKGRFTISRDNAKNTVYLQMNSMKPEDTAVYYCAARGRMDYWGQGTQVTVSS")
"high polyreactivity"
>>> measured("QVQLVESGGGLVQAGGSLRLSCAASGSTCDYYAMGWYRQAPGKEREIVAAITTGGDTTNYADSVKGRFTISRDNAKNTVYLQMNSLKPEVTAVYYCARDTGYDLIVLPDDSWGQGTQVTVSS")
"low polyreactivity"
>>> measured("QVQLVESGGGLVQAGGSLRLSCAASGRTFQYYAMGWYRQAPGKERELVAAITWSGTSTYYADSVKGRFTISRDNAKNTVYLQMNSLKPEDTAVYYCNKYSPYITYDYDYWGQGTQVTVSS")
"high polyreactivity"
>>> measured("QVQLVESGGGLVQAGGSLRLSCAASGRTFYLYTMGWYRQAPGKERELVAAITRGGNTYYADSVKGRFTISRDNAKNTVYLQMNSLKPEDTAVYYCAAADYTTPVPYGRKGFDYWGQGTQVTVSS")
"low polyreactivity"
>>> measured("QVQLVESGGGLVQAGGSLRLSCAASGRIFGDYAMGWYRQAPGKERELVARITWSGTGTYYADSVKGRFTISRDNAKNTVYLQMNSLKPEDTAVYYCNADWQVQWYYYWGHGTQVTVSS")
"low polyreactivity"
>>> measured("QVQLVESGGGLVQAGGSLRLSCAASGFIFRYYTMGWYRQAPVKERELVASITRSGGSTYYADSVKGRFTISRDNGKNTVYLQMNSLKPEDTAVYYCAAVVYLRFRNSYWGQGTQVTVSS")
"high polyreactivity"
>>> measured("QVQLVESGVGLVQAGRSLSLICAASGSTFFLYGMGWYIQAPGKERDLVAAITWNGGSTYYADSVKGRFTISRDNAKNTVYLQMKSLKPEDTAVYYCAADYYGFFSTPYDYWGQGTQVSVSS")
"low polyreactivity"
>>> measured("QVQLVESGGGIVQAGGRLRLSCAASGYIFDIYAMGWNRQAPGKERELDADITRSGGGTYYADSVKGRFTISRDNAKNTVYLQMNSLKPEDTAVYYCAAESYVYGGSDYDYWGQGTQVTVSS")
"low polyreactivity"
>>> measured("QVQLVESGGGLVQAGGSLRLSCDASGSIFSIYAMGWYRQAPGKERELVAAISSGGSTYYADSVKGRFTISRDNAKNTVYLQMNSLKPEDTAVYYCAADAAYYSGYDYWGQGTQVTVSS")
"low polyreactivity"
>>> measured("QFQLVESGGGLVQAGGSLRLSCADSGSIFLLYVMGWYRQAPGKERELVAAISSGGSTNYADSVKGRFTISRDNAKNTVYLQMNSLKPEDTAVYYCNAVAVPQGVKLYDYWGQGTQVTVSS")
"low polyreactivity"
>>> measured("QVQLVESGGGLVQAGGSLRLSCAASGLTFGGNAMGWYRPAPGKERELVAAISWSDHTTDYADSVKGRFTISRDKSKNSVYFQMKRLKPEDTAVYYCAARLPFEHVDYWGQGTQVTVSS")
"low polyreactivity"
>>> measured("QVQLVESGGGLVQAGGSLRLSCAASGFIFRTYAMGWYRQAPGKERELDATITGDGSTNYADSVKGRFTISRDNAKKTVYLQMNSLKPEDTAVYYGSRDVRLSGDYWGQGTQVTVSS")
"low polyreactivity"
>>> measured("QVQLVESGGGLVQAGGSLRLSCAASGIIFVYYVMGWYRQAPGKERELVASIDGSGGSTNYADSVKGRFTISRDNAKNTVYLQMNSLKPEDTAVYYCNADNILYWSTLDYWGQGTQVTVSS")
"low polyreactivity"
>>> measured("QVQLGESGGGLVQAGGSLRLSCAASGRTFYINTMGWYRQAPGKEREFVAAISSGGGRTYYADSVKGRFTISRDNAKNTVYLQMNSLKPEDTAVYYCAAYLGGAEDTYRFGYWGQGTQVTVSS")
"high polyreactivity"
>>> measured("QVQLGESGGGLLQAGGSLRLSCAASGRSFSVNFMGWYRQAPGKDTELVAAIDTSGGSTYYADSVKGRFTISRDNAKNTVYLQMNCLNPEHTAVYVCASGFYGYRSSCYWGQGTQVTVSS")
"low polyreactivity"
>>> measured("QVQLVESGGGLVQAGGSLRLSCAASGSIFPSYAMGWYRQAPGKERELVATISGSGTSTYYADSVKGRFTISRDNAKNTVYLQMNSLKPEDTAVYYSAADPWLGTGRYDYWGQGTQVTVSS")
"low polyreactivity"
>>> measured("QVQLVESGGGLDQAGGSLRLSSAASGSIFSGYAMGWYRQAPGKERELVAAISSSGTRTYYADSVKGRFTISRDNAKNTVYLQMNSLKPEETAVYYCNAATSKVQFSGYGYWGQGTQVTVSS")
"high polyreactivity"
>>> measured("QVQLVESGGGLVQAGGSLRLSCAASGFTFSYYAMGWYRQAPGKERELVATITWDGGSTYYADSVKGRFTISRDNAKNTVYLQMNSLKPEDTAVYYCAAQYYRWQTKYDYWGQGTQVTVSS")
"high polyreactivity"

---

experiment: yeast display, Sf9 membrane polyspecificity reagent, FACS + sequencing; frameworks hold sequencing errors
METRIC: polyreactivity (PSR sort gate)

>>> measured("QVQLVESGGGLVQAGGSLRLSCAASGSIFTWYAMGWSRPAPGKERELVAAITRGGSTYADSVKGRFTISRDNAKNTVYLQMNSLKPEDSAVYYCNAVYGVYDFNYWGQGTQVTVSS")
"low polyreactivity"
>>> measured("QVQLVESGGGLVQAGGSLRLSCAASGSTFVDYAMGWYRQAPGKERELVAAISSSGSTNYADSVKGRFTISRDNAKNTVYLQMNSLKPEDTAVYYCNADGNPDFYYSFYDEYDYWGQGTQVTVSS")
"low polyreactivity"

---

assay: yeast display, Sf9 membrane polyspecificity reagent, FACS + sequencing; frameworks hold sequencing errors
METRIC: polyreactivity (PSR sort gate)

>>> measured("QVQLVESGGGLVQAGGSLRLSCAASGRTFWYYAMGWYRQAPGKEREFVAAISWSGGSTYYADSVKGRFTISRDNAKNTVYFQMNSLKPEDTAVYYCNAGNYRDKSYYWGQGTQVTVSS")
"low polyreactivity"
>>> measured("QDQLVESGGGLVQAGGSLRLSCAASGRIFPYNAMGWYRQAPGKERELVAGISRTGGSTYYADSVKGRFTISRDNAKNTVYLQMNSLKPEDTAVYYCAARPGAHPDRLDYWGQGTQVTVSS")
"low polyreactivity"
>>> measured("QVQLVESGGGLVQAGGSLRLSCAASGFTFDHYAMGWYRQAPGKERELVARITGTGDSTYYADSVKGRFTISRDNAKNTVYLQRNSLKPEDTAVDYCNADRRYDFYDGYGYWGQGTQVTVSS")
"low polyreactivity"

---

assay: yeast display, Sf9 membrane polyspecificity reagent, FACS + sequencing; frameworks hold sequencing errors
METRIC: polyreactivity (PSR sort gate)

>>> measured("QVQLVDSGGGLVQAGGSLRLSCAASGSIFGSYAMGWYRQAPGKERELVAGISGRGGSTYYADSVKGRFTISRDNAKNTVYLQMNSLKPEDTAVYYCAAGRRNGWLIPHYYWGQGTQVTVSS")
"high polyreactivity"
>>> measured("QVQLVESGGGLVQAGVSLRLSCAASGSIFVHYDMGWYRPAPGKERELVADIDYSGGSTYYADSVKGRFTISRDYAKNTVYLQMNSLKPEDTAVYDCAAERRRWGLDYYYWGQGTQVTVSS")
"high polyreactivity"
>>> measured("QVQLVESGGGLVQAGGRLRLSCAASGFIFLNYTMGWYRQAPGKEREMVADISNGSDRTYFADSLKGRFTISRENAKNTVYLQMNSLKPEDTAVYYCAKDRDFSSPPTESGFDYWGQGTQVTVSS")
"low polyreactivity"
>>> measured("QVQLVESGGGLVQAGGSLRLSCAASGLTFYRYAMGWYRQAPGKERELVATIRSGDGTYYADSVKGRFTISRDNAMNTVYFKMNSLKPEDTAVYYCAAKKVYRVYGRYEYWGQGTQVTVSS")
"high polyreactivity"
>>> measured("QVQLVESGGGLVQAGGSLRLSCAASGRIFYYYAMGWYRQAPGKERELVAVISRGGRTKYADSVKGRFTISRDNAKNTVYLQMNILKPEDTAVYYCAAYPSYYGDSGLRYDYWGQGTQVTVSS")
"high polyreactivity"
>>> measured("QVQLVESGGGLVQAGGSLRISCAASGRTFYWNAMGWYRQAPGKERELVASINGGGSTYYADSVKGRFTISRDNAKNTVYLQMNSLKPEDTAVYYCNAESYEFHRAWGDYDYWGQGTQVTVSS")
"low polyreactivity"
>>> measured("QVQLVESGGGLVQAGGSLRLSCAASGRTFIYNVMGWYRQAPGKERELVASIRSSGGSTYYADSVKGRFTISRDNAKNTVYLQMNSLKPEDTAVYYCAADRSPGIRGWPGDYWGQGTQVTVSS")
"low polyreactivity"
>>> measured("QVQLVESGGGLVQAGGSLRLSCAASGITFITYVMGWYRQAPGKERELVAAISLRGGRTSYADSVKGRFTISRDNAKNTVYLQMNSLKPEDTAVYYCAARAYYTRYDFWGQGTQVTVSS")
"high polyreactivity"
>>> measured("QVKLVESGGGLVQAGGSLRLSCAASGRIFQPYAMGWYRQAPGKERELVADITYRDGSTYFADSVKGRFTISRDNAKNTVYLQMNSLKPEDTAVYYCNADGEYAKDDWFHWYDYWGQGTQVTVSS")
"high polyreactivity"
>>> measured("QVQLVESGGGLVHAGGSLRLSCAASGNIFKRNAMGWYRQAHGKERELVAAISGSGVRTYYADSVKGRFTISRDNAKNSVYLQMNSLKPEDTAVYYCNAEIRYSAWNWLSYEYWGQGTQVTVSS")
"high polyreactivity"
>>> measured("QVQLVESGGGLVQAGGSLRLSCAASGFIFQYYGMGWYRQAPGQVRELVAAIDSRGGSTYYADSVKGRFTISRDNAKNTVSLQMNSLKPADTAVYYCAAMGLYQGTLNHFYYWGQGTQVTVAS")
"low polyreactivity"
